Origin of values: patent US20250051356A1

test system: M. abscessus subsp. abscessus ATCC 19977; test: MIC against M. abscessus in Middlebrook 7H9 + ADC; format: cell-based; settings: Mycobacteroides abscessus, ATCC19977; ATCC 19977; 7H9 + ADC; read-out: MIC M. abscessus
parameter: MIC (µg/mL)
# number only, unit µg/mL dropped from output

# get_value(readout='MIC', item= CO[C@H]1/C=C/O[C@@]2(C)Oc3c(C)c(O)c4c(c3C2=O)C2=NC3(CCN(CC(C)C)CC3)NC2=C(NC(=O)/C(C)=C\C=C\[C@H](C)[C@H](O)[C@@H](C)[C@@H](O)[C@@H](C)[C@H](OC(=O)CC(=O)OCC2CCCN(C)C2)[C@@H]1C)C4=O (some centres unmarked) [Compound 3] ) 1

# get_value(readout='MIC', item= CO[C@H]1/C=C/O[C@@]2(C)Oc3c(C)c(O)c4c(c3C2=O)C2=NC3(CCN(CC(C)C)CC3)NC2=C(NC(=O)/C(C)=C\C=C\[C@H](C)[C@H](O)[C@@H](C)[C@@H](O)[C@@H](C)[C@H](OC(=O)CC(=O)N2CCN(c3ccncc3)CC2)[C@@H]1C)C4=O [Compound 116] ) 0.25

###

MIC values, listed per item
test system: M. abscessus subsp. abscessus ATCC 19977; assay: MIC against M. abscessus in Middlebrook 7H9 + ADC; format: cell-based; conditions: Mycobacteroides abscessus, ATCC19977; ATCC 19977; 7H9 + ADC; read-out: MIC M. abscessus
# number only, unit µg/mL dropped from output

CO[C@H]1/C=C/O[C@@]2(C)Oc3c(C)c(O)c4c(c3C2=O)C2=NC3(CCN(CC(C)C)CC3)NC2=C(NC(=O)/C(C)=C\C=C\[C@H](C)[C@H](O)[C@@H](C)[C@@H](O)[C@@H](C)[C@H](OC(=O)CC(=O)N2CCC3C(CCCN3Cc3ccccc3)C2)[C@@H]1C)C4=O (stereo partly shown) [Compound 68]	0.25
CO[C@H]1/C=C/O[C@@]2(C)Oc3c(C)c(O)c4c(c3C2=O)C2=NC3(CCN(CC(C)C)CC3)NC2=C(NC(=O)/C(C)=C\C=C\[C@H](C)[C@H](O)[C@@H](C)[C@@H](O)[C@@H](C)[C@H](OC(=O)CC(=O)N2CCC(N3CCCCC3)CC2)[C@@H]1C)C4=O [Compound 58]	1
CO[C@H]1/C=C/O[C@@]2(C)Oc3c(C)c(O)c4c(c3C2=O)C2=NC3(CCN(CC(C)C)CC3)NC2=C(NC(=O)/C(C)=C\C=C\[C@H](C)[C@H](O)[C@@H](C)[C@@H](O)[C@@H](C)[C@H](OC(=O)CC(=O)N2CCC(OC3CCC(C)CC3)CC2)[C@@H]1C)C4=O (stereo partly shown) [Compound 67]	0.125

Let us examine a further case.
# get_value(readout='MIC', item= CO[C@H]1/C=C/O[C@@]2(C)Oc3c(C)c(O)c4c(c3C2=O)C2=NC3(CCN(CC(C)C)CC3)NC2=C(NC(=O)/C(C)=C\C=C\[C@H](C)[C@H](O)[C@@H](C)[C@@H](O)[C@@H](C)[C@H](OC(=O)CC(=O)N2CCN(C)CC2)[C@@H]1C)C4=O [Compound 10] ) 1

###

tested on: M. abscessus subsp. abscessus ATCC 19977; test: MIC against M. abscessus in Middlebrook 7H9 + ADC; assay type: cell-based; settings: Mycobacteroides abscessus, ATCC19977; ATCC 19977; 7H9 + ADC; read-out: MIC M. abscessus
For each record, check the reported MIC: if it is below 0.5 µg/mL write YES, else write NO.

CO[C@H]1/C=C/O[C@@]2(C)Oc3c(C)c(O)c4c(c3C2=O)C2=NC3(CCN(CC(C)C)CC3)NC2=C(NC(=O)/C(C)=C\C=C\[C@H](C)[C@H](O)[C@@H](C)[C@@H](O)[C@@H](C)[C@H](OC(=O)CC(=O)NCC2CCN(C)CC2)[C@@H]1C)C4=O	NO
COC(=O)CNC(=O)CC(=O)O[C@H]1[C@H](C)[C@H](O)[C@H](C)[C@@H](O)[C@@H](C)/C=C/C=C(/C)C(=O)NC2=C3NC4(CCN(CC(C)C)CC4)N=C3c3c(c(O)c(C)c4c3C(=O)[C@@](C)(O/C=C/[C@H](OC)[C@H]1C)O4)C2=O	NO
CO[C@H]1/C=C/OC2(C)Oc3c(C)c(O)c4c(c3C2=O)C2=NC3(CCN(CC(C)C)CC3)NC2=C(NC(=O)/C(C)=C\C=C\[C@H](C)[C@H](O)[C@@H](C)[C@@H](O)[C@@H](C)[C@H](OC(=O)CCCC(=O)N2CCC(N(C)c3ccccc3)CC2)[C@@H]1C)C4=O (stereo partly shown)	YES

Given CO[C@H]1/C=C/O[C@@]2(C)Oc3c(C)c(O)c4c(c3C2=O)C2=NC3(CCN(CC(C)C)CC3)NC2=C(NC(=O)/C(C)=C\C=C\[C@H](C)[C@H](O)[C@@H](C)[C@@H](O)[C@@H](C)[C@H](OC(=O)CC(=O)N2CCN(CC3CCCCC3)CC2)[C@@H]1C)C4=O , is recorded MIC strictly lower than 0.5 µg/mL? YES

Given CO[C@H]1/C=C/OC2(C)Oc3c(C)c(O)c4c(c3C2=O)C2=NC3(CCN(CC(C)C)CC3)NC2=C(NC(=O)/C(C)=C\C=C\[C@H](C)[C@H](O)[C@@H](C)[C@@H](O)[C@@H](C)[C@H](OC(=O)CCC(=O)N2CCCN(c3ccc(F)cc3)CC2)[C@@H]1C)C4=O (stereo partly shown) , is recorded MIC strictly lower than 0.5 µg/mL? YES

###

MIC values, listed per item
test system: M. kansasii (ATCC 12478); experiment: MIC against M. kansasii in CAMHB + ADC; format: cell-based; details: Mycobacterium kansasii, ATCC12478, read-out: MIC M. kansasii
Answers without a unit are incomplete; give the number and then its unit.

Some molecules with recorded MIC:
CO[C@H]1/C=C/O[C@@]2(C)Oc3c(C)c(O)c4c(c3C2=O)C2=NC3(CCN(CC(C)C)CC3)NC2=C(NC(=O)/C(C)=C\C=C\[C@H](C)[C@H](O)[C@@H](C)[C@@H](O)[C@@H](C)[C@H](OC(=O)CC(=O)N2CCC(Nc3ccccc3)CC2)[C@@H]1C)C4=O	4 ng/mL
CO[C@H]1/C=C/O[C@@]2(C)Oc3c(C)c(O)c4c(c3C2=O)C2=NC3(CCN(CC(C)C)CC3)NC2=C(NC(=O)/C(C)=C\C=C\[C@H](C)[C@H](O)[C@@H](C)[C@@H](O)[C@@H](C)[C@H](OC(=O)CC(=O)N2CCC(Nc3ccc(C)cc3)CC2)[C@@H]1C)C4=O	4 ng/mL
CO[C@H]1/C=C/OC2(C)Oc3c(C)c(O)c4c(c3C2=O)C2=NC3(CCN(CC(C)C)CC3)NC2=C(NC(=O)/C(C)=C\C=C\[C@H](C)[C@H](O)[C@@H](C)[C@@H](O)[C@@H](C)[C@H](OC(=O)CC(=O)N2CCC(c3ccccc3)CC2)[C@@H]1C)C4=O (stereo partly shown)	2 ng/mL

# get_value(readout='MIC', item= CO[C@H]1/C=C/OC2(C)Oc3c(C)c(O)c4c(c3C2=O)C2=NC3(CCN(CC(C)C)CC3)NC2=C(NC(=O)/C(C)=C\C=C\[C@H](C)[C@H](O)[C@@H](C)[C@@H](O)[C@@H](C)[C@H](OC(=O)CC(=O)N2C3CCC2CC(c2ccccc2)C3)[C@@H]1C)C4=O (stereo partly shown) ) 8 ng/mL

###

MIC values, listed per item
tested on: M. abscessus subsp. abscessus ATCC 19977; assay: MIC against M. abscessus in Middlebrook 7H9 + ADC; type: cell-based; conditions: Mycobacteroides abscessus, ATCC19977; ATCC 19977; 7H9 + ADC; read-out: MIC M. abscessus
# number only, unit µg/mL dropped from output

# get_value(readout='MIC', item= CO[C@H]1/C=C/O[C@@]2(C)Oc3c(C)c(O)c4c(c3C2=O)C2=NC3(CCN(CC(C)C)CC3)NC2=C(NC(=O)/C(C)=C\C=C\[C@H](C)[C@H](O)[C@@H](C)[C@@H](O)[C@@H](C)[C@H](OC(=O)CC(=O)N2CCC(n3c(=O)[nH]c5ccccc53)CC2)[C@@H]1C)C4=O ) 0.5

# get_value(readout='MIC', item= CO[C@H]1/C=C/O[C@@]2(C)Oc3c(C)c(O)c4c(c3C2=O)C2=NC3(CCN(CC(C)C)CC3)NC2=C(NC(=O)/C(C)=C\C=C\[C@H](C)[C@H](O)[C@@H](C)[C@@H](O)[C@@H](C)[C@H](OC(=O)CCC(=O)OCC2CCCN(C)C2)[C@@H]1C)C4=O (some centres unmarked) ) 1

# get_value(readout='MIC', item= CO[C@H]1/C=C/OC2(C)Oc3c(C)c(O)c4c(c3C2=O)C2=NC3(CCN(CC(C)C)CC3)NC2=C(NC(=O)/C(C)=C\C=C\[C@H](C)[C@H](O)[C@@H](C)[C@@H](O)[C@@H](C)[C@H](OC(=O)CCCC(=O)N2CCCN(c3ccc(F)cc3)CC2)[C@@H]1C)C4=O (some centres unmarked) ) 0.125

# get_value(readout='MIC', item= CO[C@H]1/C=C/O[C@@]2(C)Oc3c(C)c(O)c4c(c3C2=O)C2=NC3(CCN(CC(C)C)CC3)NC2=C(NC(=O)/C(C)=C\C=C\[C@H](C)[C@H](O)[C@@H](C)[C@@H](O)[C@@H](C)[C@H](OC(=O)CC(=O)N2CCCN(c3ccccn3)CC2)[C@@H]1C)C4=O ) 0.125

# get_value(readout='MIC', item= CO[C@H]1/C=C/O[C@@]2(C)Oc3c(C)c(O)c4c(c3C2=O)C2=NC3(CCN(CC(C)C)CC3)NC2=C(NC(=O)/C(C)=C\C=C\[C@H](C)[C@H](O)[C@@H](C)[C@@H](O)[C@@H](C)[C@H](OC(=O)CC(=O)N2CCC(n3cccn3)CC2)[C@@H]1C)C4=O ) 0.5

# get_value(readout='MIC', item= CO[C@H]1/C=C/OC2(C)Oc3c(C)c(O)c4c(c3C2=O)C2=NC3(CCN(CC(C)C)CC3)NC2=C(NC(=O)/C(C)=C\C=C\[C@H](C)[C@H](O)[C@@H](C)[C@@H](O)[C@@H](C)[C@H](OC(=O)CC(=O)NCCCN(C)c2ccccc2)[C@@H]1C)C4=O (some centres unmarked) ) 0.25

# get_value(readout='MIC', item= CO[C@H]1/C=C/O[C@@]2(C)Oc3c(C)c(O)c4c(c3C2=O)C2=NC3(CCN(CC(C)C)CC3)NC2=C(NC(=O)/C(C)=C\C=C\[C@H](C)[C@H](O)[C@@H](C)[C@@H](O)[C@@H](C)[C@H](OC(=O)CC(=O)N2CCCCC2)[C@@H]1C)C4=O ) 0.5

# get_value(readout='MIC', item= CO[C@H]1/C=C/O[C@@]2(C)Oc3c(C)c(O)c4c(c3C2=O)C2=NC3(CCN(CC(C)C)CC3)NC2=C(NC(=O)/C(C)=C\C=C\[C@H](C)[C@H](O)[C@@H](C)[C@@H](O)[C@@H](C)[C@H](OC(=O)CC(=O)N2CCc3[nH]c5ccccc5c3C2)[C@@H]1C)C4=O ) 0.5

# get_value(readout='MIC', item= CO[C@H]1/C=C/O[C@@]2(C)Oc3c(C)c(O)c4c(c3C2=O)C2=NC3(CCN(CC(C)C)CC3)NC2=C(NC(=O)/C(C)=C\C=C\[C@H](C)[C@H](O)[C@@H](C)[C@@H](O)[C@@H](C)[C@H](OC(=O)CC(=O)N2CCC(n3nnc5cc(C(F)(F)F)ccc53)CC2)[C@@H]1C)C4=O ) 0.25

# get_value(readout='MIC', item= CO[C@H]1/C=C/O[C@@]2(C)Oc3c(C)c(O)c4c(c3C2=O)C2=NC3(CCN(CC(C)C)CC3)NC2=C(NC(=O)/C(C)=C\C=C\[C@H](C)[C@H](O)[C@@H](C)[C@@H](O)[C@@H](C)[C@H](OC(=O)CC(=O)N2CCC3(CC2)C(=O)NCN3c2ccccc2)[C@@H]1C)C4=O ) 0.5

# get_value(readout='MIC', item= CO[C@H]1/C=C/O[C@@]2(C)Oc3c(C)c(O)c4c(c3C2=O)C2=NC3(CCN(CC(C)C)CC3)NC2=C(NC(=O)/C(C)=C\C=C\[C@H](C)[C@H](O)[C@@H](C)[C@@H](O)[C@@H](C)[C@H](OC(=O)CC(=O)OC2CCN(C)CC2)[C@@H]1C)C4=O ) 0.5
